experiment: chemical genetic growth profiling, strain panel (AID 1159580);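 note: tested at 20 µM; growth read once vehicle control cultures reached saturation at 30 °C; 1 = growth at the plate median or of vehicle wells; lower values mean less growth of the strain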; conditions: S. cerevisiae deletion strains, growth OD, locus YKL068W
Out of some 5,500 compounds screened, about 2,000 (36%) were called active. Another 18% or so got no clear call; they are omitted. Cut-off read from the data, not from the text of the source: active = normalized growth mostly below about 0.91 (no sharp cut-off); inconclusive = no clear call, values can overlap the other calls; inactive = mostly above about 0.92. Some of the results follow.
Outcome (select one): yes (1) for active, no (0) for inactive

{"compound": "CC1CCCC(C)N1NC(=O)c1ccc(Cl)c(S(N)(=O)=O)c1 (stereo not given)", "cat": "no (0)"}
{"compound": "COc1cc(O)c2c(=O)cc(-c3ccc(OC)c(-c4c(O)cc(O)c5c(=O)cc(-c6ccc(O)cc6)oc45)c3)oc2c1", "cat": "no (0)"}

Q) What was the test verdict on "C[N+]1(C)C[C@H](O)[C@H](C(=O)[O-])C1" ?
A) no (0)

Q) I would be grateful if you could indicate the recorded call for CC(=O)N1CCCC1C(=O)O (stereo not given) .
A) no (0)

Q) For "CC(C)Nc1nc(Cl)nc(NC(C)C)n1" , which call appears in the assay record?
A) no (0)

Q) Recorded call for "CC(=O)Oc1ccccc1C(=O)Oc1ccccc1C(=O)O" ?
A) no (0)

Q) Record request — test call for CC1(C)C(=O)CC[C@@]2(C)C1C[C@@H](O)[C@@]1(C)C3=CC(=O)O[C@@H](c4ccoc4)[C@]3(C)CCC21 (stereo not given in full)
A) no (0)

---

Known normalized growth of a selection of compounds
assay: chemical genetic growth profiling, strain panel (AID 1159580);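 note: tested at 20 µM; growth read once vehicle control cultures reached saturation at 30 °C; 1 = growth at the plate median or of vehicle wells; lower values mean less growth of the strain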; conditions: S. cerevisiae deletion strains, growth OD, locus YGL078C, strain dbp3, hits give low values
Hit rate of the full screen: of about 5,500 compounds, about 2,000 (36%) were called active. About 18% were inconclusive and are not listed. Some of the results follow.
API note: the answer field is a bare number with no unit suffix.

# example entries with known answers
{"compound": "COc1cc(C)c2c(=O)c3c(O)cc(OC)cc3oc2c1", "normalized growth": 0.976}
{"compound": "CCC(=O)OCC(=O)[C@@]1(OC(=O)CC)[C@@H](C)CC2C3CCC4=CC(=O)C=C[C@]4(C)C3(F)[C@@H](O)C[C@@]21C (stereo not given in full)", "normalized growth": 0.975}
{"compound": "CCCCC(=O)O[C@]1(C(=O)CO)[C@@H](C)CC2C3CCC4=CC(=O)C=C[C@]4(C)[C@@]3(F)C(O)C[C@@]21C (stereo not given in full)", "normalized growth": 0.99}
{"compound": "CC(=O)OCC(=O)[C@@]1(O)CCC2C3C[C@H](C)C4=CC(=O)C=CC4(C)C3[C@@H](O)CC21C (stereo not given in full)", "normalized growth": 1}
{"compound": "C[C@H]1O[C@@H](O[C@H]2[C@@H](O)C[C@H](O[C@H]3[C@@H](O)C[C@H](O[C@H]4CC[C@]5(C)C6C[C@@H](O)[C@]7(C)[C@@H](C8=CC(=O)OC8)CC[C@]7(O)C6CC[C@@H]5C4)O[C@@H]3C)O[C@@H]2C)C[C@H](O)[C@@H]1O (stereo not given in full)", "normalized growth": 1}

Q) normalized growth lookup needed for COC1C(O)C(O[C@H]2CC[C@]3(C=O)C4C(CC[C@]3(O)C2)[C@@]2(O)CC[C@H](C3=CC(=O)OC3)[C@@]2(C)C[C@H]4OC(C)=O)OC(C)C1OC(C)=O (stereo not given in full) , thanks.
A) 1.03

Q) If you can, please state the reported normalized growth value of CCC(=O)O[C@]1(C(=O)CCl)[C@@H](C)CC2C3CCC4=CC(=O)C=C[C@]4(C)[C@@]3(F)[C@@H](O)C[C@@]21C (stereo not given in full) .
A) 0.978

Q) Which normalized growth is listed for CC(=O)O[C@@H]1CC2C(C)(C)CCC[C@]2(C)C2CC[C@]3(C)C(=CC(=O)O[C@H]3c3ccoc3)[C@@]21C (stereo not given in full) ?
A) 0.982

Q) Report normalized growth for C[C@]12CCC3C(CC[C@]4(O)C[C@@H](O)CC[C@]34C=O)[C@@]1(O)CCC2C1=CC(=O)OC1 (stereo not given in full) please.
A) 0.996

Q) Give the measured normalized growth of "CC1(C)[C@@H]2CC[C@@]1(C)C(=O)C2" .
A) 0.996

# credit: PubChem BioAssay AID1159580
